Data credit: PubChem BioAssay AID1918933

Tested on: 186277-243-T-J2-PDC complex spheroid viability
Assay: Anticancer human tumor 186277-243-T-J2-PDC patient-derived colon adenocarcinoma cell line growth inhibition
Conditions: second compound 0.1 µM; first compound 0.000316 µM; stronger effect = lower value
endpoint.name: viability, T/C (%)
Express it in %; write the number only.

compound	study.system	viability, T/C [%]
CC(C)CC(NC(=O)CNC(=O)c1cc(Cl)ccc1Cl)B1OC(=O)CC(CC(=O)O)(C(=O)O)O1 (stereo not drawn) + NC1CCC(NC2CC2c2ccccc2)CC1	186277-243-T-J2-PDC complex spheroid viability	102
CC[C@@]1(O)C(=O)OCc2c1cc1n(c2=O)Cc2cc3c(CN(C)C)c(O)ccc3nc2-1 + NC1CCC(NC2CC2c2ccccc2)CC1	186277-243-T-J2-PDC complex spheroid viability	106
CC(C)CC(NC(=O)CNC(=O)c1cc(Cl)ccc1Cl)B1OC(=O)CC(CC(=O)O)(C(=O)O)O1 (stereo not drawn) + NC1CC1c1ccc(-c2cccc(O)c2)cc1	186277-243-T-J2-PDC complex spheroid viability	110
Cn1ncnc1C1c2n[nH]c(=O)c3cc(F)cc(c23)NC1c1ccc(F)cc1 (stereo not drawn) + NC1CCC(NC2CC2c2ccccc2)CC1	186277-243-T-J2-PDC complex spheroid viability	109
Cn1ncnc1C1c2n[nH]c(=O)c3cc(F)cc(c23)NC1c1ccc(F)cc1 (stereo not drawn) + NC1CC1c1ccc(-c2cccc(O)c2)cc1	186277-243-T-J2-PDC complex spheroid viability	110
CC[C@@]1(O)C(=O)OCc2c1cc1n(c2=O)Cc2cc3c(CN(C)C)c(O)ccc3nc2-1 + NC1CC1c1ccc(-c2cccc(O)c2)cc1	186277-243-T-J2-PDC complex spheroid viability	117

Noted for CC(C)CC(NC(=O)C(Cc1ccccc1)NC(=O)c1cnccn1)B(O)O (stereo not drawn) + NC1CCC(NC2CC2c2ccccc2)CC1 : its viability, T/C reads 103

Noted for CC(C)CC(NC(=O)C(Cc1ccccc1)NC(=O)c1cnccn1)B(O)O (stereo not drawn) + NC1CC1c1ccc(-c2cccc(O)c2)cc1 : its viability, T/C reads 108

----------
Listed next: entries and their corresponding viability, T/C.
Test system: 186277-243-T-J2-PDC complex spheroid viability
Assay: Anticancer human tumor 186277-243-T-J2-PDC cell line growth inhibition;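 note: 7 day exposure to compounds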;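 for viability, T/C: 100% = DMSO vehicle control viability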
Settings: second compound 1 µM; first compound 0.0316 µM; stronger effect = lower value

Study these solved cases before continuing.
compound	viability, T/C
CC1(C)CCC(CN2CCN(c3ccc(C(=O)NS(=O)(=O)c4ccc(NCC5CCOCC5)c([N+](=O)[O-])c4)c(Oc4cnc5[nH]ccc5c4)c3)CC2)=C(c2ccc(Cl)cc2)C1 + NC1CCC(NC2CC2c2ccccc2)CC1	100%
CC(C)CC(NC(=O)CNC(=O)c1cc(Cl)ccc1Cl)B1OC(=O)CC(CC(=O)O)(C(=O)O)O1 (centres undefined) + NC1CCC(NC2CC2c2ccccc2)CC1	18.3%
CC(C)CC(NC(=O)C(Cc1ccccc1)NC(=O)c1cnccn1)B(O)O (centres undefined) + NC1CC1c1ccc(-c2cccc(O)c2)cc1	0.07%

Noted for CC(C)c1c(-c2ccccc2)nc2c(C#N)c[nH]n2c1=O + NC1CCC(NC2CC2c2ccccc2)CC1 : its viability, T/C reads 110%

Noted for Cn1ncnc1C1c2n[nH]c(=O)c3cc(F)cc(c23)NC1c1ccc(F)cc1 (centres undefined) + NC1CC1c1ccc(-c2cccc(O)c2)cc1 : its viability, T/C reads 108%

Noted for O=C(c1cc(Cc2n[nH]c(=O)c3ccccc23)ccc1F)N1CCN(C(=O)C2CC2)CC1 + NC1CC1c1ccc(-c2cccc(O)c2)cc1 : its viability, T/C reads 106%

Noted for CC[C@@]1(O)C(=O)OCc2c1cc1n(c2=O)Cc2cc3c(CN(C)C)c(O)ccc3nc2-1 + NC1CC1c1ccc(-c2cccc(O)c2)cc1 : its viability, T/C reads 73.1%

Noted for CC1COCCN1c1cc(C2(S(C)(=N)=O)CC2)nc(-c2ccnc3[nH]ccc23)n1 (centres undefined) + NC1CCC(NC2CC2c2ccccc2)CC1 : its viability, T/C reads 118%

----------
Tested on: 186277-243-T-J2-PDC complex spheroid viability
Test: Anticancer human tumor 186277-243-T-J2-PDC cell line growth inhibition; active means viability on the fitted dose curve at most 10% of control; inactive means the rest;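 note: 7 day exposure to compounds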
Details: second compound 10 µM; first compound 1 µM
Write down one outcome, taken from Y (active), N (inactive)

Recorded results for 9 compounds are shown here.
compound	class.name
COc1cc(Nc2ncc3c(n2)-c2ccc(Cl)cc2C(c2c(F)cccc2OC)=NC3)ccc1C(=O)O + NC1CC1c1ccc(-c2cccc(O)c2)cc1	N
CC1(C)CCC(CN2CCN(c3ccc(C(=O)NS(=O)(=O)c4ccc(NCC5CCOCC5)c([N+](=O)[O-])c4)c(Oc4cnc5[nH]ccc5c4)c3)CC2)=C(c2ccc(Cl)cc2)C1 + NC1CC1c1ccc(-c2cccc(O)c2)cc1	N
COc1ccc([C@@H](O)c2cc(-c3ncnc4cc(N5CCOCC5)ccc34)c(F)cc2Cl)nn1 + NC1CC1c1ccc(-c2cccc(O)c2)cc1	N
CC1(C)CCC(CN2CCN(c3ccc(C(=O)NS(=O)(=O)c4ccc(NCC5CCOCC5)c([N+](=O)[O-])c4)c(Oc4cnc5[nH]ccc5c4)c3)CC2)=C(c2ccc(Cl)cc2)C1 + NC1CCC(NC2CC2c2ccccc2)CC1	N
O=C(C=Cn1cnc(-c2cc(C(F)(F)F)cc(C(F)(F)F)c2)n1)NNc1cnccn1 + NC1CCC(NC2CC2c2ccccc2)CC1	Y
CC(C)c1c(-c2ccccc2)nc2c(C#N)c[nH]n2c1=O + NC1CCC(NC2CC2c2ccccc2)CC1	N
CC1COCCN1c1cc(-c2ccnn2C)c2ccnc(-c3ccn[nH]3)c2n1 (stereo not given) + NC1CCC(NC2CC2c2ccccc2)CC1	N
Nc1ncn(C2CC(O)C(CO)O2)c(=O)n1 (stereo not given) + NC1CC1c1ccc(-c2cccc(O)c2)cc1	N
CC1COCCN1c1cc(-c2ccnn2C)c2ccnc(-c3ccn[nH]3)c2n1 (stereo not given) + NC1CC1c1ccc(-c2cccc(O)c2)cc1	Y

Continue with the compound presented below.
I would be grateful if you could indicate the recorded call for COc1cc(Nc2ncc3c(n2)-c2ccc(Cl)cc2C(c2c(F)cccc2OC)=NC3)ccc1C(=O)O + NC1CCC(NC2CC2c2ccccc2)CC1 .
Y

----------
Listed next: entries and their corresponding viability, T/C.
Tested on: 186277-243-T-J2-PDC complex spheroid viability
Experiment: Anticancer human tumor 186277-243-T-J2-PDC cell line growth inhibition;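 note: 7 day exposure to compounds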;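 for viability, T/C: 100% = DMSO vehicle control viability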
Conditions: second compound 3.16 µM; first compound 0.316 µM; stronger effect = lower value
Express it in %; write the number only.

Study these solved cases before continuing.
compound	endpoint.name	quantity.unit	recorded.measurement
Nc1ncn(C2CC(O)C(CO)O2)c(=O)n1 (stereo not given) + NC1CC1c1ccc(-c2cccc(O)c2)cc1	viability, T/C	%	140
O=C(c1cc(Cc2n[nH]c(=O)c3ccccc23)ccc1F)N1CCN(C(=O)C2CC2)CC1 + NC1CCC(NC2CC2c2ccccc2)CC1	viability, T/C	%	119

Noted for CC1COCCN1c1cc(-c2ccnn2C)c2ccnc(-c3ccn[nH]3)c2n1 (stereo not given) + NC1CC1c1ccc(-c2cccc(O)c2)cc1 : its viability, T/C reads 9.05

Noted for O=C(C=Cn1cnc(-c2cc(C(F)(F)F)cc(C(F)(F)F)c2)n1)NNc1cnccn1 + NC1CCC(NC2CC2c2ccccc2)CC1 : its viability, T/C reads 5.32

Noted for O=C(c1cc(Cc2n[nH]c(=O)c3ccccc23)ccc1F)N1CCN(C(=O)C2CC2)CC1 + NC1CC1c1ccc(-c2cccc(O)c2)cc1 : its viability, T/C reads 95.8

Noted for CC(C)c1c(-c2ccccc2)nc2c(C#N)c[nH]n2c1=O + NC1CCC(NC2CC2c2ccccc2)CC1 : its viability, T/C reads 112

Noted for O=C(C=Cn1cnc(-c2cc(C(F)(F)F)cc(C(F)(F)F)c2)n1)NNc1cnccn1 + NC1CC1c1ccc(-c2cccc(O)c2)cc1 : its viability, T/C reads 2.92

Noted for CC1COCCN1c1cc(C2(S(C)(=N)=O)CC2)nc(-c2ccnc3[nH]ccc23)n1 (stereo not given) + NC1CC1c1ccc(-c2cccc(O)c2)cc1 : its viability, T/C reads 109

Noted for CC1COCCN1c1cc(C2(S(C)(=N)=O)CC2)nc(-c2ccnc3[nH]ccc23)n1 (stereo not given) + NC1CCC(NC2CC2c2ccccc2)CC1 : its viability, T/C reads 71.3

Noted for COc1ccc([C@@H](O)c2cc(-c3ncnc4cc(N5CCOCC5)ccc34)c(F)cc2Cl)nn1 + NC1CC1c1ccc(-c2cccc(O)c2)cc1 : its viability, T/C reads 97.1

----------
System: 186277-243-T-J2-PDC complex spheroid viability
Test: Anticancer human tumor 186277-243-T-J2-PDC cell line growth inhibition;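 note: 7 day exposure to compounds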
Conditions: curve of first compound; second compound 10 µM
Description: Multicellular complex tumor spheroid response to LSD1 Inhibitor Iadademstat in combination with a variety of drugs and investigational agents in selected tumor cell lines The current study was undertaken to assess response to LSD1 inhibitors in combination with standard-of-care drugs and investigational agents in solid tumor complex spheroid models as well as in the K-562 leukemia. […] Compounds. […] If the clinical Cmax for an agent had not been determined, the highest concentration tested was 10 microM. […]
endpoint.name: IC50

Study these solved cases before continuing.
compound	IC50
O=C(c1cc(Cc2n[nH]c(=O)c3ccccc23)ccc1F)N1CCN(C(=O)C2CC2)CC1 + NC1CCC(NC2CC2c2ccccc2)CC1	> 10000 nM
Nc1ncn(C2CC(O)C(CO)O2)c(=O)n1 (stereo not given) + NC1CCC(NC2CC2c2ccccc2)CC1	> 1000 nM
Nc1ccn(C2OC(CO)C(O)C2(F)F)c(=O)n1 (stereo not given) + NC1CCC(NC2CC2c2ccccc2)CC1	< 0.949 nM
CC1COCCN1c1cc(-c2ccnn2C)c2ccnc(-c3ccn[nH]3)c2n1 (stereo not given) + NC1CC1c1ccc(-c2cccc(O)c2)cc1	< 3.16 nM
COc1cc(Nc2ncc3c(n2)-c2ccc(Cl)cc2C(c2c(F)cccc2OC)=NC3)ccc1C(=O)O + NC1CC1c1ccc(-c2cccc(O)c2)cc1	> 1000 nM
O=C(c1cc(Cc2n[nH]c(=O)c3ccccc23)ccc1F)N1CCN(C(=O)C2CC2)CC1 + NC1CC1c1ccc(-c2cccc(O)c2)cc1	> 10000 nM

Noted for Cn1ncnc1C1c2n[nH]c(=O)c3cc(F)cc(c23)NC1c1ccc(F)cc1 (stereo not given) + NC1CCC(NC2CC2c2ccccc2)CC1 : its IC50 reads > 100 nM

Noted for Cn1ncnc1C1c2n[nH]c(=O)c3cc(F)cc(c23)NC1c1ccc(F)cc1 (stereo not given) + NC1CC1c1ccc(-c2cccc(O)c2)cc1 : its IC50 reads > 100 nM

Noted for CC(C)c1c(-c2ccccc2)nc2c(C#N)c[nH]n2c1=O + NC1CC1c1ccc(-c2cccc(O)c2)cc1 : its IC50 reads > 10000 nM

Noted for CC(C)c1c(-c2ccccc2)nc2c(C#N)c[nH]n2c1=O + NC1CCC(NC2CC2c2ccccc2)CC1 : its IC50 reads > 10000 nM
